assay_name: Three time point assay for plasma, brain and testes distribution after oral dosing
Format: in vivo, rat
cond: rat, oral dosing, time point 7 h
Testes concentration values for the molecules below.
metric: Testes concentration (ng/g)

INSERT INTO results (molecule, metric, numeric_result) VALUES
  ('COc1ccn2c(C(=O)Nc3cc(-c4noc(CC(O)C(F)F)n4)ccc3C)cnc2c1 (single isomer, unassigned)', 'Testes concentration', 300),
  ('Cc1ccc(-c2noc(CC(O)C(F)F)n2)cc1NC(=O)c1cnc2ccccn12 (stereo not shown)', 'Testes concentration', 248),
  ('Cc1ccc(-c2noc([C@H]3C[C@@H]3F)n2)cc1NC(=O)c1cnc2cc(OC(F)(F)F)ccn12', 'Testes concentration', 1650),
  ('Cc1ccc(-c2noc([C@H]3C[C@@H]3F)n2)cc1NC(=O)c1cnc2cc(OC(C)C)ccn12', 'Testes concentration', 1950);
